- procedure.summary: in vivo
- test.conditions: rat, plasma, iv
parameter: half-life (min)

>  <molecule>
Cc1ncc(COC(=O)N[C@@H](Cc2ccccc2)[C@@H](O)C[C@H](Cc2ccccc2)NC(=O)C(NC(=O)N(C)Cc2csc(C(C)C)n2)C(C)C)s1 (some centres not stated)

>  <assay.value>
26.4

$$$$
>  <molecule>
Cc1cncc(CN(C)C(=O)NC(C(=O)N[C@@H](Cc2ccccc2)C[C@H](O)[C@H](Cc2ccccc2)NC(=O)OCc2cccnc2)C(C)C)c1 (some centres not stated)

>  <assay.value>
31.8

$$$$
>  <molecule>
CC(C)C(NC(=O)OCc1cncc(N)c1)C(=O)N[C@@H](Cc1ccccc1)C[C@H](O)[C@H](Cc1ccccc1)NC(=O)OCc1cccnc1 (some centres not stated)

>  <assay.value>
30

$$$$
>  <molecule>
CC(C)C(NC(=O)OCc1cnccn1)C(=O)N[C@@H](Cc1ccccc1)[C@@H](O)C[C@H](Cc1ccccc1)NC(=O)OCc1cccnc1 (some centres not stated)

>  <assay.value>
13.8

$$$$
>  <molecule>
Cc1cncc(COC(=O)NC(C(=O)N[C@@H](Cc2ccccc2)C[C@H](O)[C@H](Cc2ccccc2)NC(=O)OCc2cccnc2)C(C)C)c1 (some centres not stated)

>  <assay.value>
22.8

$$$$
>  <molecule>
CCc1nc(CN(C)C(=O)NC(C(=O)N[C@@H](Cc2ccccc2)[C@@H](O)C[C@H](Cc2ccccc2)NC(=O)OCc2cccnc2)C(C)C)cs1 (some centres not stated)

>  <assay.value>
44.4

$$$$
>  <molecule>
Cc1ccc(COC(=O)NC(C(=O)N[C@@H](Cc2ccccc2)C[C@H](O)[C@H](Cc2ccccc2)NC(=O)OCc2cccnc2)C(C)C)cn1 (some centres not stated)

>  <assay.value>
39

$$$$
